Biological target: cGAS (Homo sapiens, UniProt Q8N884)
Sequence (Q8N884 whole entry): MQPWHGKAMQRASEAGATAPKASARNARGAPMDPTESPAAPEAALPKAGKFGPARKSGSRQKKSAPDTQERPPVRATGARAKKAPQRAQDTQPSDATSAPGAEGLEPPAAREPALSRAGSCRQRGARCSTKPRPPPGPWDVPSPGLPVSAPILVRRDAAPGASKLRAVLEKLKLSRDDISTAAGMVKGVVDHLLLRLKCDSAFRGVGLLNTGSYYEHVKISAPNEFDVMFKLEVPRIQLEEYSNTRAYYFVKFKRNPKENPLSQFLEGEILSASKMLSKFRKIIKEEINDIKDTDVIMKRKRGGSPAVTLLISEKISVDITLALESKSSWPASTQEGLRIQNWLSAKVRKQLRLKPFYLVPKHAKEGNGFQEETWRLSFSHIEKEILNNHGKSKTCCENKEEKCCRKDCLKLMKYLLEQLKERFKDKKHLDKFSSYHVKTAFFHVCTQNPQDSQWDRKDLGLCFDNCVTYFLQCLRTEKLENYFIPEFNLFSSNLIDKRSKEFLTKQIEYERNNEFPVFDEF
property.label: pIC50
Keep it numeric: pIC50 is minus log10 of the concentration in mol/L.

Name the recorded pIC50 for CCN(CC)CCCC(C)Nc1c2ccc(Cl)cc2nc2ccc(OC)cc12 (stereo not shown) .
4.41
